Target: T1, 4H2673-bA
T1 chain: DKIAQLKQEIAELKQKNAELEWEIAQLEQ
Test: two-hybrid library CCNG1;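 also: natural log of median RNA to DNA barcode read ratio; higher means stronger binding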
Some binders, each annotated with its measured interaction score.
Lab note: jot the number down without any unit.

# annotated cases, reported interaction score shown
>  <binder>
DKIAQLKQEIAELEQENAELKWEIAQLKQ [4H2586-bA]

>  <metric.name>
interaction score

>  <value.reported>
0.53

$$$$
>  <binder>
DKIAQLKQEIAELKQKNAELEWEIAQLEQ [4H2673-bA]

>  <metric.name>
interaction score

>  <value.reported>
0.275

$$$$
>  <binder>
DKIAQLKQEIAELKQEIAELEWENAQLEQ [4H2627-bA]

>  <metric.name>
interaction score

>  <value.reported>
-0.531

$$$$
>  <binder>
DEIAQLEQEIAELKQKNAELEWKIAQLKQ [4H118-bA]

>  <metric.name>
interaction score

>  <value.reported>
1.32

$$$$
>  <binder>
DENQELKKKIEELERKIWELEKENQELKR [4H1828-bH]

>  <metric.name>
interaction score

>  <value.reported>
-3.95

$$$$
>  <binder>
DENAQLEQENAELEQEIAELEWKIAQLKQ [4H1158-bA]

>  <metric.name>
interaction score

>  <value.reported>
-0.0392

$$$$

// recorded interaction score for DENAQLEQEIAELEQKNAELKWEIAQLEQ [4H1081-bA] : -0.717

// recorded interaction score for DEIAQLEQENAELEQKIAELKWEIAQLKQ [4H170-bA] : 1.01

// recorded interaction score for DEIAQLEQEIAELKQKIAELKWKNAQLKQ [4H112-bA] : 1.17

// recorded interaction score for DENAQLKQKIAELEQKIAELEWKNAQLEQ [4H1831-bA] : 0.133
